Assignment: determine reported growth for the given molecules.
test system: MDA-MB-435 melanoma; experiment: NCI-60 one-dose screen, 48 h (100 = growth as untreated, 0 = no growth, -100 = all killed); details: 10 µM unless noted
Compounds without any hit were thinned out: in the full panel of roughly 83,000, 20% have a hit. Activity calls are given as the source filed them. How the source made its calls: active means growth percent below 10; inactive means the rest.

These recorded examples may help you get a feel for the data.
INSERT INTO results (molecule, readout_value) VALUES
  ('COc1cccc(-c2nc3sccn3c2-c2ccnc(NCCCNS(=O)(=O)c3c(Cl)cccc3Cl)c2)c1', '64.5% (inactive)'),
  ('CN(CCCCCl)P(=O)(OCc1ccc([N+](=O)[O-])o1)C(F)(F)c1ccc(CC(=O)NC[C@@H](O)/C=C\[C@@H](O)[C@H](CO)Cc2ccccc2)cc1 (stereo not given in full)', '65.4% (inactive)'),
  ('Clc1ccc2c(NCCCCNc3nc(N4CCOCC4)nc4ccccc34)ccnc2c1', '14.1% (inactive)'),
  ('CSc1ccc(SC2c3ccc(C)cc3Oc3nc(N)c(C#N)c(N)c32)cc1 (stereo not given)', '-86.7% (active)'),
  ('COc1cc(Nc2cc(C)nc(N3CCN(c4ccnc5cc(Cl)ccc45)CC3)n2)cc(OC)c1', '-2.88% (active)'),
  ('CC1=C[C@H]2c3c(c(O)c(O)c4oc(-c5ccccc5)cc(=O)c34)[C@H](c3cc(O)c(O)c4oc(-c5ccccc5)cc(=O)c34)[C@H]2C(C)(C)C1', '-32.9% (active)'),
  ('O=C(O)c1c(=O)cccc2ssc12', '23.3% (inactive)'),
  ('Clc1ccc2nc3nc4ccc[nH]c4cc3c2c1', '103% (inactive)');

Hey, quick one: what's growth for each of these?
1. CCCc1cc(=O)n2c(C(=O)Nc3cccc(C(=O)OCC)c3)c(C(=O)Nc3ccc(F)cc3)sc2n1
2. Cc1nc2ccccc2n1C(=O)C[C@@H]1NC(=S)NC1=O
3. COc1cc(C2CC(=O)c3ccccc3N2)cc(OC)c1OC (stereo not given)
4. COc1cccc(-c2nc3sccn3c2-c2ccnc(NCCNS(=O)(=O)c3ccccc3)c2)c1
5. O=C1NC(=O)C(c2ccc(Cl)cc2Cl)N1 (stereo not given)
6. COc1cc(/C=C/C(=O)Nc2cccnc2Nc2ccc(F)cc2)cc(OC)c1OC
7. O=C(CN1CCCCC1)Nc1ccc2oc(=O)ccc2c1
8. O=C(C(=O)c1ccc2c(c1)OCO2)c1ccc2c(c1)OCO2

Response given:
73.4% [30 µM] (inactive)
97.8% (inactive)
105% (inactive)
22.6% (inactive)
113% (inactive)
97.4% (inactive)
113% (inactive)
114% (inactive)

Dear colleague, could you send me growth for each of the items below? Thanks.
1. CC1SC(c2ccc(N(C)C)cc2)N(NC(=O)C(O)(c2ccccc2)c2ccccc2)C1=O (stereo not given)
2. Cn1cccc1-c1nc2c3c(ccc2[nH]1)C(=O)c1ccccc1C3=O
3. C#CCOc1ccc2ncnc(Nc3cccc(CNC(=O)C=C)c3)c2c1
4. COc1cccc(Nc2nc(SC)nc(-c3cccc([N+](=O)[O-])c3)c2C#N)c1
5. CCCOc1cc2ccccc2cc1C(=O)Nc1nc(N)c2c(ccc3nccc32)[nH]1
6. COc1ccc(-c2nnc(SCC(=O)c3ccc(Cl)cc3)o2)cc1

Response given:
["84.3% (inactive)", "105% (inactive)", "97.1% [8.25 µM] (inactive)", "80.9% (inactive)", "-94.5% (active)", "108% (inactive)"]

Give one value of growth per listed molecule.
1. N#Cc1c(-c2ccc(Cl)cc2)nc(N=Nc2c(O)[nH]c3ccc(Cl)cc23)nc1N1CCOCC1
2. COc1ccc(/C=C/c2nc(-c3n[nH]c(=O)n3-c3ccccc3)c3ccccc3n2)cc1

Response given:
97.5% (inactive)
99.4% (inactive)

* * *

Tested on: SF-268 CNS
Assay: NCI-60 one-dose screen, 48 h (100 = growth as untreated, 0 = no growth, -100 = all killed)
Settings: 10 µM unless noted
Procedure: Cells are grown in 96 well plates and exposed to the test compound for 48 hours. Compounds are tested at a single concentration, which is 10^-5 M for most compounds. The reported endpoint is percent growth (GI% or GIPRCNT), where numbers from 0 - 100% represent growth inhibition, and numbers from -100% - 0 represent cell death. For example, a value of 40 represents 60% growth inhibition. A value of 0 means no net growth occurred over the course of the experiment. […]
This is part of a sample that, as a whole, favours compounds with a hit. Of some 83,000 tested, about 20% had one in any assay.
Label 1 (yes) when growth is strictly below 50%; otherwise label 0 (no).

Record excerpt, results attached:
INSERT INTO measurements (compound, assayed_target, class_name) VALUES
  ('Cc1[nH]c(-c2cc(N)ccc2Cl)c2c1C(=O)CCCC2', 'SF-268 CNS', '0 (no)'),
  ('O=c1ccccc(-c2ccc(-c3ccco3)cc2)c1O', 'SF-268 CNS', '1 (yes)'),
  ('CC1C(/C=N/Nc2ccccc2)C(C#N)(C#N)C1(C#N)C#N (centres undefined)', 'SF-268 CNS', '0 (no)');

Challenge: Is growth strictly under 50% for the entry COc1ccc2c(c1)O/C(=C\c1cccc(OCC(=O)Nc3nc4c(s3)CCCC4)c1)C2=O ?
Response given: 0 (no)

Challenge: Next record, please: Cn1c(O)c(N=NC(=O)c2cc(-c3ccccc3)on2)c2ccccc21
Response given: 0 (no)

Challenge: Likewise for COc1cc2c(cc1O)CC[C@@H]1[C@@H]2CC[C@]2(C)[C@@H](NCCN(C)C)CC[C@@H]12 ?
Response given: 1 (yes)

Challenge: What would you report for CC1(C)CC[C@]2(C(=O)Nc3ccccn3)CC[C@]3(C)C(=CC[C@@H]4[C@@]5(C)C/C(=C/c6cccnc6)C(=O)C(C)(C)[C@@H]5CC[C@]43C)[C@H]2C1 ?
Response given: 0 (no)

Challenge: Also CCN(CC)c1ccc2c(c1)Oc1nc(N)c(C#N)c(N)c1C2Sc1ccc(SC)cc1 (centres undefined) , if possible.
Response given: 1 (yes)

Challenge: Next up: CN1CCN(CCCOc2cccc3nc(Nc4ccc(Cl)c(F)c4)ccc23)CC1
Response given: 1 (yes)

* * *

system: M14 melanoma; assay: NCI-60 one-dose screen, 48 h (100 = growth as untreated, 0 = no growth, -100 = all killed); settings: 10 µM unless noted
About 83,000 compounds went through this panel and 20% of them were active in at least one assay; those are over-represented in the sample as a whole.
OBSERVABLE: growth (%)
Numbers only, in %.

Below: 2 molecules and their reported growth.
INSERT INTO measurements (molecule, assayed_target, readout_value) VALUES
  ('N#Cc1c(-c2ccc(Cl)cc2)nc(N=Nc2c(O)[nH]c3ccc(Cl)cc23)nc1N1CCOCC1', 'M14 melanoma', 93.6),
  ('CC(=O)O[C@H]1C(=O)[C@@]2(C)[C@H]([C@H](OC(=O)c3ccccc3)[C@]3(O)C[C@H](OC(=O)[C@H](OC(=O)CCC(=O)OC4CCC(S/N=C(N)/N=C(\N)N(C)C)CC4)[C@@H](NC(=O)c4ccccc4)c4ccccc4)C(C)=C1C3(C)C)[C@]1(OC(C)=O)CO[C@@H]1C[C@@H]2O (stereo partly drawn)', 'M14 melanoma', 30.1);

# next molecule below
Challenge: Item O=C1/C(=C/c2ccc(Cl)cc2)SC(=S)N1CCc1ccc(O)cc1 has what recorded growth?
Response given: 104

* * *

tested on: HCT-15 colon; assay: NCI-60 one-dose screen, 48 h; details: 10 µM unless noted
This is part of a sample that, as a whole, favours compounds with a hit. Of some 83,000 tested, about 20% had one in any assay. The source made the active and inactive calls. How the source made its calls: active means growth percent below 10; inactive means the rest.
Please state which outcome applies, choosing from active, inactive

INSERT INTO results (compound, assayed_target, class_name) VALUES
  ('O=C(COc1ccc(/C=C2\COc3ccccc3C2=O)cc1)Nc1nccs1', 'HCT-15 colon', 'inactive'),
  ('COc1ccc(O)c(N=Nc2nccs2)c1', 'HCT-15 colon', 'inactive'),
  ('O=C(Cc1ccccc1Nc1c(Cl)cccc1Cl)NN1C(=O)/C(=C/c2ccc(Br)cc2)SC1=S', 'HCT-15 colon', 'inactive'),
  ('CN1CCN(c2nc(NCCCCNc3ccnc4cc(Cl)ccc34)c3ccccc3n2)CC1', 'HCT-15 colon', 'inactive');

Challenge: Assay result, entry COc1ccc(Nc2nc(SC)nc(-c3cccc([N+](=O)[O-])c3)c2C#N)cc1 — outcome?
Response given: inactive

Challenge: Try the compound COc1cc(-c2nc3ccccc3[nH]2)ccc1OCC(=O)N=Nc1c(O)[nH]c2ccc(Cl)cc12
Response given: inactive

Challenge: Further, for O=C1/C(=C/c2cn(-c3ccccc3)nc2-c2ccccc2)SC(=S)N1CCc1ccccc1 ?
Response given: inactive

Challenge: Can you handle N#CN1CC[C@H](C(=O)Nc2cc3cc(C(N)=O)ccc3cn2)C1 next?
Response given: active

Challenge: Then what about the compound C=C(C)C(=O)Nc1ccc(NC(C)C)cc1 ?
Response given: inactive

Challenge: Now this one: COc1cc2nc(N3CCCC3)nc(NCC3CCCCC3)c2cc1OC
Response given: active

Challenge: Record: CS(=O)(=O)c1ccc(-n2nc(-c3ccc(Br)cc3)c3ccccc3c2=O)cc1
Response given: inactive
